In this section, each of the compounds is paired with its reported melting point.

compound: Cc1ccc(S(=O)(=O)NC(=O)c2cc(Oc3ccc(C(F)(F)F)cc3Cl)ccc2[N+](=O)[O-])cc1
melting point: 150 °C

compound: CCOC(=O)C1=C(C(OC)OC)Nc2nccn2C1c1cccc([N+](=O)[O-])c1 (stereo unspecified)
melting point: 190 to 191 °C

compound: COc1ccc2nc3c(cc2c1)c(Cl)nn3C
melting point: 138 to 139 °C

compound: CC(=O)OC1CCC2(C)C(=CCC3C2CCC2(C)C(C(C)CCC(=O)O)CCC32)C1 (stereo unspecified)
melting point: 192 to 193 °C

compound: Cn1cc(C2=C(c3cc[nH]c3)C(=O)NC2=O)c2ccccc21
melting point: 240 to 241 °C

compound: CC1COc2c(N3Cc4cccc(F)c4C3)c(F)cc3c(=O)c(C(=O)O)cn1c23 (stereo unspecified)
melting point: > 300 °C

====

compound_string: Cc1ncn(Nc2ccccc2)c1C
melting point: 178 °C
--
compound_string: COc1c(OC(C)=O)c(C)c(CCCC(=O)O)c(OC(C)=O)c1OC
melting point: 125 to 127 °C
--
compound_string: O=C(O)c1cc2cc(Cl)ccc2nc1N[C@@H](Cc1ccc(Cl)cc1)C(=O)O
melting point: 163 to 168 °C

====

// values below are reported melting point

compound: CN(C)C=Nc1c(Cl)cc(N=Cc2cccc(C(F)(F)F)c2)cc1Cl
melting point: 62 to 64 °C
--
compound: CCCCCCCCCCCCS(=O)(=O)Nc1cc(-c2nc3cc(Cl)c(Cl)cc3[nH]2)ccc1OC
melting point: 203 to 204 °C
--
compound: Cc1cc(Oc2ccc([N+](=O)[O-])c(Cl)c2)n[nH]1
melting point: 91 to 93 °C
--
compound: CC(O)c1ccc(CNC(=O)c2cccnc2Oc2cccnc2)s1 (configuration not stated)
melting point: 92 to 94 °C
--
compound: Cc1c(N2C(=O)C[C@](C)(O)[C@@H]2C)ccc(C#N)c1F
melting point: 138 to 141 °C
--
compound: N#Cc1ccccc1NC1=CC(=O)CCC1
melting point: 206 °C
--
compound: CCN=C(Cc1ccccc1)N1CC2C(=O)CCC(c3ccccc3)(c3ccccc3)C2C1 (configuration not stated)
melting point: 108 °C

====

Overview of reported melting point across a group of molecules:
measured_property: melting point

molecule: CC(C)Oc1cc(C(C)C)c2c(c1)S(=O)(=O)N(c1c(F)c(F)nc(F)c1F)C2=O
value: 130 °C
--
molecule: CCN(CC)CCn1nc2c3c(c(NCCN4C(=O)c5ccccc5C4=O)ccc31)Sc1cc(OC)ccc1-2
value: 171 to 172 °C
--
molecule: CC(CC[Si](CCC(C)[N+](=O)[O-])(c1ccccc1)c1ccccc1)[N+](=O)[O-] (stereo not drawn)
value: 84 to 85 °C

====

Quick reference: melting point of the listed items.

molecule: CCc1ccc(C2=NC(C)(C(C)C)C(=O)N2CC=CC(=O)O)nc1 (stereo not given)
melting point: 53 to 58 °C
--
molecule: CCCCCCc1cc2c(s1)NC(=O)CN=C2c1ccccc1C
melting point: 162 to 163 °C
--
molecule: Cc1cc(OCc2coc(C=Cc3ccc(OC(F)F)cc3)n2)ccc1COCCn1ccnn1
melting point: 119 to 120 °C
--
molecule: O=C(c1ccccc1F)c1cc(Cl)ccc1I
melting point: 78 to 81 °C
--
molecule: O=C1c2cc(F)cc(F)c2OC[C@H]1NC(=O)C(F)(F)F
melting point: 167 to 168 °C
--
molecule: COC(=O)NNC(C)=S
melting point: 99 to 100 °C
--
molecule: O=C(Nc1ccccc1)N1C[C@@H](P(c2ccccc2)c2ccccc2)[C@H](P(c2ccccc2)c2ccccc2)C1
melting point: 165 to 167 °C
--
molecule: N#Cc1cc(N2CCN(CCCCCC(=O)N3Cc4ccccc4C3)CC2)cc(C(F)(F)F)c1
melting point: 128 °C
--
molecule: O=S1(=O)N=C(NCc2ccco2)Nc2cc(Cl)sc21
melting point: 224 to 225 °C
--
molecule: O=c1[nH]c2cc(Cl)cc(Cl)c2c(=O)n1Cc1cccc(I)c1
melting point: 299 to 302 °C

====

List of melting point values.

molecule: N#Cc1ccc(-c2cnc3[nH]c(=O)n(CC4CCCCC4)c3n2)cc1
melting point: 255 to 257 °C
--
molecule: OCCNCCNCc1ccc(-c2cc3ncnc(Nc4ccc5[nH]ccc5c4)c3s2)cc1
melting point: 78 to 95 °C
--
molecule: CC(C)S(=O)(=O)c1cnc2c(c1)nc(CC(C)(C)C)n2CC1(O)CCOCC1
melting point: 179 °C
--
molecule: CC(C)(C)c1cc(-c2csc(C3(N4CCOCC4)CCOCC3)n2)cc(C(C)(C)C)c1O
melting point: 172 to 174 °C
--
molecule: Cc1ccc(-c2ccc3c(c2)C=C(C(=O)N[C@H]2CC[C@H](CN(C)C4CCN(C(=O)OC(C)(C)C)CC4)CC2)CCO3)cc1
melting point: 146 to 150 °C
--
molecule: O=C1c2c(O)ccc(O)c2C(=O)c2c(NCCNCCO)ccc(O)c21
melting point: 196 to 198 °C
--
molecule: O=C(O)COc1c(-c2cc(Cl)cc(Cl)c2)cc(C(=O)NCCCCCCc2ccccc2)cc1-c1cc(Cl)cc(Cl)c1
melting point: 151 to 159 °C
--
molecule: Nc1ccc(SC2=CCCCC2)cc1[N+](=O)[O-]
melting point: 93 to 95 °C
--
molecule: CCc1cc(OCc2ccc(-c3ccccc3-c3nnn(C(c4ccccc4)(c4ccccc4)c4ccccc4)n3)cc2)c2c(n1)CCCN2C(=O)C(F)(F)F
melting point: 93 to 95 °C
--
molecule: CC1CCC(C(=O)Nc2ccc(-c3ncc(-c4ccc(NC(=O)C5CCCCCC5)cc4)[nH]3)cc2)CC1 (stereo not drawn)
melting point: 244 to 246 °C
--
molecule: CCN(CC)C(=O)c1cc(S(=O)(=O)Cc2ccccc2)c(N2CCC(c3ccccc3)CC2)cc1N(CC)CCN(C)C
melting point: 117 to 118 °C
--
molecule: CCCC1=NN(c2ccc(S(=O)(=O)NC(C)(C)C)cc2)C(=O)C1=CNc1ccccc1OCC
melting point: 254 °C
--
molecule: CC(O)=C(C#N)C(=O)Oc1ccc(Cl)cc1
melting point: 97 to 100 °C

====

We begin with a simple list: items and their reported melting point.

molecule: CCc1c(Cc2ccccc2)[nH]c(=O)[nH]c1=O
melting point: 73 to 74 °C
--
molecule: COc1ccc(CCc2cc3cc(C#N)ccc3o2)c(C(=O)O)c1
melting point: 179 to 182 °C
--
molecule: O=C1CC(c2ccc(Cl)cc2Cl)Cc2[nH]c3ccc(Cl)cc3c(=O)c21 (stereo not drawn)
melting point: 308 to 310 °C
--
molecule: CN(N(C)S(C)(=O)=O)S(C)(=O)=O
melting point: 168 to 169 °C
--
molecule: C[C@@H](O)[C@H]1C(=O)N(CC(=O)OC(C)(C)C)[C@@H]1C(=O)OC(C)(C)C
melting point: 79 to 81 °C
--
molecule: CC(=O)N1CCc2c(c3ccc(-n4ccc(-c5ccc(C(F)(F)F)nc5)cc4=O)nc3n2C)C1
melting point: 238 to 242 °C
--
molecule: CC=NN(C(=O)c1ccc(Cl)cc1)c1ccc(OC)c(F)c1
melting point: 97 to 99 °C
--
molecule: O=c1c2cc3nnn(C4CC4)c(=O)c3cc2ncn1CCn1ncnn1
melting point: 194 to 195 °C

====

measured_property: melting point

molecule: COc1ccc(N2Cc3ccccc3P2(C)=O)cc1 (stereo unspecified)
value: 148 to 150 °C

molecule: O=Cc1ccc(C=CC(=O)N2CCc3c([nH]c4ccccc34)C2c2ccc3c(c2)OCO3)cc1 (stereo unspecified)
value: 208 °C

molecule: O=C(O)C1=COc2c(C(=O)c3cccs3)cc(Cl)c(Cl)c2O1
value: 233 to 236 °C

molecule: CC(=O)N1C[C@H]2CCC[C@H]2OC1=O (relative stereo)
value: 80 to 83 °C

molecule: Cc1ccc(S(=O)(=O)CC(=O)NN=C2C(=O)Nc3ccc(I)cc32)cc1
value: 257 °C

molecule: CCCCSc1cc(C(=O)O)cc(S(N)(=O)=O)c1Sc1ccccc1
value: 192 to 193 °C

molecule: COC1=C(c2cccc(C(F)(F)F)c2)C(CCC(=O)O)OC1=O (stereo unspecified)
value: 132 °C

molecule: O=C1Cc2c(Cl)cccc2Sc2c(F)cccc21
value: 128 to 130 °C

molecule: N#Cc1ccc(F)cc1-c1ccc(F)cc1
value: 111 to 113 °C

molecule: CCOc1n[nH]c(=O)n1CC
value: 115 °C

molecule: CCOC(=O)c1c(Cn2cncn2)nc2cc(OC)c(OC)cc2c1-c1ccc(O)c(O)c1
value: 122 to 124 °C

molecule: COc1ccc2oc(-c3nc(C(C)(C)C)cs3)cc2c1
value: 80 to 81 °C

molecule: CC(=O)N[C@@H](C)COC1CCN(c2nc3cc(OCC4CCC4)ccc3o2)CC1
value: 109 to 110 °C

molecule: CC(=O)OCc1ccccc1C(=O)C(N)=O
value: 86.5 to 88 °C

molecule: Cc1cccc(C)c1N(CCCC(=O)N[C@@H](C)C(=O)O)C(=O)c1ccc(Cl)cc1
value: 159 to 161 °C

molecule: CCCc1c(Br)c2ccc(C(N)=O)cc2n1Cc1ccccc1Br
value: 122 to 125 °C
